Catalogue of molecules with associated IC50
Target: Acetylcholinesterase (Electrophorus electricus)
Sequence (O42275 whole entry): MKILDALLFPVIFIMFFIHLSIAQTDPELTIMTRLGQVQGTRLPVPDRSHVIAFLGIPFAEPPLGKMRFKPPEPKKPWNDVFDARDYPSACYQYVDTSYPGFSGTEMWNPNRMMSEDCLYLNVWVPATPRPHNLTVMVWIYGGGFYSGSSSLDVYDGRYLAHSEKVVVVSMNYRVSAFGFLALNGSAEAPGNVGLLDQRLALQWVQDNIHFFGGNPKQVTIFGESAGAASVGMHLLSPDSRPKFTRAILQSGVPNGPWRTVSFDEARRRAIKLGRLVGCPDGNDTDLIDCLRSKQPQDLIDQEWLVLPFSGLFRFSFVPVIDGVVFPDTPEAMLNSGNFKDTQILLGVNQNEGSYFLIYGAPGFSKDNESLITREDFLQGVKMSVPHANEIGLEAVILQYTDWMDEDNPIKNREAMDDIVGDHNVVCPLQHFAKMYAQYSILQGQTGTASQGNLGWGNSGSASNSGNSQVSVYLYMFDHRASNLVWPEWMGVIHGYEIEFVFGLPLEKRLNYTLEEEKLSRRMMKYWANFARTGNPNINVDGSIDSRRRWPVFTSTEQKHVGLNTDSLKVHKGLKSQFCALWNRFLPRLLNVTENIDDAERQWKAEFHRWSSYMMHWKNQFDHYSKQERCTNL
MEASURED QUANTITY: IC50

[[record]]
molecule = "COc1cccc(/C=C2\\CC(C)c3ccccc3C2=O)c1Cl (configuration not stated)"
measured_quantity = "IC50"
test_result = "1.9 µM"

[[record]]
molecule = "COc1ccc(OC)c2c1CC/C(=C\\c1cc(OC)c(OC)c(OC)c1Br)C2=O"
measured_quantity = "IC50"
test_result = "0.27 µM"

[[record]]
molecule = "COc1cccc(/C=C2\\CCc3c(OC)cccc3C2=O)c1Cl"
measured_quantity = "IC50"
test_result = "89.5 µM"

[[record]]
molecule = "COc1ccc(OC)c2c1CC/C(=C\\c1ccc(OC)c(OC)c1Cl)C2=O"
measured_quantity = "IC50"
test_result = "2.4 µM"

[[record]]
molecule = "COc1cc(/C=C2\\CCc3ccc([N+](=O)[O-])cc3C2=O)c(Br)c(OC)c1OC"
measured_quantity = "IC50"
test_result = "0.57 µM"

[[record]]
molecule = "COc1cc2c(cc1OC)C(=O)/C(=C/c1cc(OC)c(OC)c(OC)c1Br)CC2"
measured_quantity = "IC50"
test_result = "4.5 µM"

[[record]]
molecule = "COc1cccc2c1CC/C(=C\\c1cc(OC)c(OC)c(OC)c1Br)C2=O"
measured_quantity = "IC50"
test_result = "67.2 µM"

[[record]]
molecule = "COc1ccc2c(c1)CC/C(=C\\c1ccc(OC)c(OC)c1Cl)C2=O"
measured_quantity = "IC50"
test_result = "14.6 µM"

[[record]]
molecule = "COc1cccc(/C=C2\\CCc3c(O)cccc3C2=O)c1Cl"
measured_quantity = "IC50"
test_result = "> 100 µM"

[[record]]
molecule = "COc1ccc(/C=C2\\CCc3ccc(Cl)cc3C2=O)c(Cl)c1OC"
measured_quantity = "IC50"
test_result = "> 100 µM"

[[record]]
molecule = "COc1cc(/C=C2\\CCc3c(O)cccc3C2=O)c(Br)c(OC)c1OC"
measured_quantity = "IC50"
test_result = "> 100 µM"

[[record]]
molecule = "COc1cccc(/C=C2\\CCc3c(OC)ccc(OC)c3C2=O)c1Cl"
measured_quantity = "IC50"
test_result = "13.2 µM"

[[record]]
molecule = "COc1cc2c(cc1OC)C(=O)/C(=C/c1cccc(OC)c1Cl)CC2"
measured_quantity = "IC50"
test_result = "29.5 µM"

[[record]]
molecule = "COc1ccc(/C=C2\\CCc3ccc(Br)cc3C2=O)c(Cl)c1OC"
measured_quantity = "IC50"
test_result = "> 100 µM"

[[record]]
molecule = "COc1cc(/C=C2\\CCc3ccc(Cl)cc3C2=O)c(Br)c(OC)c1OC"
measured_quantity = "IC50"
test_result = "> 100 µM"

[[record]]
molecule = "COc1cccc(/C=C2\\CCc3ccc([N+](=O)[O-])cc3C2=O)c1Cl"
measured_quantity = "IC50"
test_result = "9.14 µM"

[[record]]
molecule = "COc1cc(/C=C2\\CC(C)c3ccccc3C2=O)c(Br)c(OC)c1OC (configuration not stated)"
measured_quantity = "IC50"
test_result = "0.045 µM"

[[record]]
molecule = "COc1cc2c(cc1OC)C(=O)/C(=C/c1ccc(OC)c(OC)c1Cl)CC2"
measured_quantity = "IC50"
test_result = "27.2 µM"

[[record]]
molecule = "COc1ccc(/C=C2\\CCc3c(O)cccc3C2=O)c(Cl)c1OC"
measured_quantity = "IC50"
test_result = "> 100 µM"

[[record]]
molecule = "COc1ccc(/C=C2\\CCc3ccc(F)cc3C2=O)c(Cl)c1OC"
measured_quantity = "IC50"
test_result = "> 100 µM"

[[record]]
molecule = "COc1cc(/C=C2\\CCc3ccc(F)cc3C2=O)c(Br)c(OC)c1OC"
measured_quantity = "IC50"
test_result = "> 100 µM"

[[record]]
molecule = "COc1cccc(/C=C2\\CCc3ccc(Cl)cc3C2=O)c1Cl"
measured_quantity = "IC50"
test_result = "> 100 µM"

